Entry source: ChEMBL document CHEMBL5729675

- TARGET_OR_TEST_SYSTEM: Ribonucleotide reductase (Homo sapiens, UniProt P23921+Q7LG56)
- Sequence (P23921 whole entry, looked up): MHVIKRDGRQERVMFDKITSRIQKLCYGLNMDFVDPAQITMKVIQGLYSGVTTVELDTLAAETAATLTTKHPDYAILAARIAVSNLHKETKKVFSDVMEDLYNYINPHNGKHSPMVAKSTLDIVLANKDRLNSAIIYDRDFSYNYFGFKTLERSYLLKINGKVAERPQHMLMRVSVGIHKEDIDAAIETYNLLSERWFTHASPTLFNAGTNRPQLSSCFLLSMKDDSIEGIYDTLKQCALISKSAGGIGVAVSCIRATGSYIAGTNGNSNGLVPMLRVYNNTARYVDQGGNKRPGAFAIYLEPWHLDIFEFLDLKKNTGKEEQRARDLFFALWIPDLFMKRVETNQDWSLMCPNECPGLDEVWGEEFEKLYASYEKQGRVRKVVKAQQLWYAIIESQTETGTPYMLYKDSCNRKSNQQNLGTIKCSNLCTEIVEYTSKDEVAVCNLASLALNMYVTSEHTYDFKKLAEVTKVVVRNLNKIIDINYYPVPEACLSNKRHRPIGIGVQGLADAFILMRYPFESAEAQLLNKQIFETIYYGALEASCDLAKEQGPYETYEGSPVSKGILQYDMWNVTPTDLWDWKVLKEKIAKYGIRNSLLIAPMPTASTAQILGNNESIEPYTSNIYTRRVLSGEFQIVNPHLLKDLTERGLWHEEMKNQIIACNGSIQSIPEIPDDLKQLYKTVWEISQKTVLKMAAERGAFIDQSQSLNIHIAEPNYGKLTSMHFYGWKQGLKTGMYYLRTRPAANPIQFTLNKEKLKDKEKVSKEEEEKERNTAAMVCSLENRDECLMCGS
- Sequence (Q7LG56 whole entry, looked up): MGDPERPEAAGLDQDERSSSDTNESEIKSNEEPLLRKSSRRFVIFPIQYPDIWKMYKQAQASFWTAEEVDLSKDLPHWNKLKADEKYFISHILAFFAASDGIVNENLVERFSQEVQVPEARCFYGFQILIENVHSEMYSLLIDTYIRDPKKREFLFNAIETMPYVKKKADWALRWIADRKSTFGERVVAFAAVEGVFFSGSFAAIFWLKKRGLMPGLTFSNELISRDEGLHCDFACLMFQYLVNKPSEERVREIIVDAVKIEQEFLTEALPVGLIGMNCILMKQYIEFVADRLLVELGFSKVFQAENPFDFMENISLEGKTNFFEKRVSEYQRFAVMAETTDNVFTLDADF
- TEST_SUMMARY: Human RNR Inhibition Effect: The inhibitory activity against the ribonucleotide reduction reaction (hereinafter referred to as RNR reaction) of the test compound was determined by measuring the formation of deoxycytidine diphosphate (hereinafter referred to as dCDP) from cytidine diphosphate (hereinafter referred to as CDP) by the following method.Human M1 subunit and human M2 subunit (mutant …
pIC50: −log10 of the molar value.
READOUT: pIC50

Sample records with pIC50:
# COMPOUND, pIC50
data = [
    ("COc1c(S(=O)(=O)N[C@H](c2n[nH]c(=O)o2)[C@H](C)c2c(F)ccc(C)c2C)ccc(Cl)c1C(C)(C)OC(C)=O", 6.37),
    ("Cc1ccc(F)c([C@@H](C)[C@H](NS(=O)(=O)c2ccc(F)c(S(C)(=O)=O)c2)c2n[nH]c(=O)o2)c1C", 6.72),
    ("Cc1ccc(F)c([C@@H](C)[C@H](NS(=O)(=O)c2ccc(Cl)c(C(N)=O)n2)c2n[nH]c(=O)o2)c1C", 7.00),
]

[I] Cc1ccc(F)c([C@@H](C)[C@H](NS(=O)(=O)c2ncc(Cl)cc2C(N)=O)c2n[nH]c(=O)o2)c1C
[II] Cc1ccc(F)c([C@@H](C)[C@H](NS(=O)(=O)c2ccc(Cl)c3c2OCCN3CC(F)F)c2n[nH]c(=O)o2)c1C
[III] Cc1ccc(F)c([C@@H](C)[C@H](NS(=O)(=O)c2ncc(Br)cc2C(=O)O)c2n[nH]c(=O)o2)c1C
[IV] CC1CCc2cccc(C(C)[C@H](NS(=O)(=O)c3ccc(Br)cn3)c3n[nH]c(=O)o3)c21 (some centres not stated)
## Input List the 4 entries from lowest pIC50 to highest pIC50 value. I would appreciate it if you listed the labels in the requested order.
## Output III, IV, II, I
